target: Plasma kallikrein (Homo sapiens, UniProt P03952); test: Inhibition of human plasma kallikrein using H-D-Pro-Phe-Arg-AFC as flurogenic substrate preincubated for 5 mins followed by substrate addition by fluorometer analysis; assay type: cell-free
Sequence (P03952 20-390 limits assumed): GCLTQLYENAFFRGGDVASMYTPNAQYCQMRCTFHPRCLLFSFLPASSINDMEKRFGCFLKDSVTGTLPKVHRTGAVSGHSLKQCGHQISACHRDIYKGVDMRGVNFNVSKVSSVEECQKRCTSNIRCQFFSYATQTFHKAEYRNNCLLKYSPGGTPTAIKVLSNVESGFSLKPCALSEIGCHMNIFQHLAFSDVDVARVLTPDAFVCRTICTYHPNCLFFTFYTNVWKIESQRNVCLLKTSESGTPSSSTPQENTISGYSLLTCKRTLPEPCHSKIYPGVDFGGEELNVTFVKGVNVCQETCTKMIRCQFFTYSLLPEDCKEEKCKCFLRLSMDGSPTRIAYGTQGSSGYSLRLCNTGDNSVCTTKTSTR
Sequence (P03952 391-638 limits assumed): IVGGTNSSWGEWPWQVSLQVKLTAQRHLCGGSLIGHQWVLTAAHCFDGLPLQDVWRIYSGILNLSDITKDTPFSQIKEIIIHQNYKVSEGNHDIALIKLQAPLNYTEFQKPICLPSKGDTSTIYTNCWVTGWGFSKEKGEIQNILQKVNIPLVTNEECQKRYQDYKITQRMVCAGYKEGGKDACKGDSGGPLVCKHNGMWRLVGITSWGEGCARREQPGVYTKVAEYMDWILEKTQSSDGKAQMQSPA
OUTCOME_MEASURE: pIC50
Hey, just a heads up that pIC50 is the negative log base 10 of the concentration in molar.

In: # query: pIC50 | item "COc1cccc(CNC(=O)c2cnn(Cc3ccc(Cn4ccccc4=O)cc3)c2)c1" | system: Plasma kallikrein (Homo sapiens, UniProt P03952)
Out: 7.05

----------
biological target: Prothrombin (Homo sapiens, UniProt P00734)
pIC50: −log10 of the molar value.
OUTCOME_MEASURE: pIC50

In: Entry COCc1nn(Cc2ccc(Cn3ccccc3=O)cc2)cc1C(=O)NCc1nccc(OC)c1F [SEBETRALSTAT] has what pIC50?
Out: < 4.40

----------
Parameter IC50, tested on UniProt:P11712, listed per item.
Sequence (P11712 whole entry): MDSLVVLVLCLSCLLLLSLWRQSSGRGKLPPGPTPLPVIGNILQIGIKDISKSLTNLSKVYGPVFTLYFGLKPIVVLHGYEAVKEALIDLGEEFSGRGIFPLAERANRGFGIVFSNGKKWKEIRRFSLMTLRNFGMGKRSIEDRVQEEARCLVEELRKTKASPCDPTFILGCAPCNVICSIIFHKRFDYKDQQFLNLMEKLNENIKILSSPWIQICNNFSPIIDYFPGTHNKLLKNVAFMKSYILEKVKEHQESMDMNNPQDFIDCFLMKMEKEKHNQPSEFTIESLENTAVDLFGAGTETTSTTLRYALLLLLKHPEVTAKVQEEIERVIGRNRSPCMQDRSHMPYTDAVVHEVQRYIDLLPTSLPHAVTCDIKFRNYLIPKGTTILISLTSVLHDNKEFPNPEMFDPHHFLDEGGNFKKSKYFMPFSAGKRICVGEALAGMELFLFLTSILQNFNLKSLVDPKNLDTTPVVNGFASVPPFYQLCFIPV

In: IC50 for "COc1ccnc(CNC(=O)c2cn(Cc3ccc(Cn4ccccc4=O)cc3)nc2C(F)(F)F)c1F" ?
Out: > 25 µM

Others:
In: Can you share its IC50? I mean this compound: "COCc1nn(Cc2ccc(Cn3ccccc3=O)cc2)cc1C(=O)NCc1c(F)ccc(OC)c1F"
Out: 13 µM

In: Moving on to the next compound: COCc1nn(Cc2ccc(Cn3ccccc3=O)cc2)cc1C(=O)NCc1nccc(OC)c1F [SEBETRALSTAT]
Out: > 25 µM

----------
Each entry below carries its recorded clearance.
test: Clearance in Beagle dog blood at 1 mg/kg, iv measured upto 24 hrs by LC-MS analysis; type: ADME, organism-based, Canis lupus familiaris; settings: whole blood

Past entries and their recorded results:
In: Dear colleague, I am looking for the recorded clearance of the following compound: "COCc1nn(Cc2ccc(Cn3ccccc3=O)cc2)cc1C(=O)NCc1c(F)ccc(OC)c1F"
Out: 24.5 mL/min/kg

In: Okay, and "COc1ccnc(CNC(=O)c2cn(Cc3ccc(Cn4ccccc4=O)cc3)nc2C(F)(F)F)c1F" ?
Out: 15.9 mL/min/kg

# input for lookup
In: Which clearance reading was recorded for the compound "COCc1nn(Cc2ccc(Cn3ccccc3=O)cc2)cc1C(=O)NCc1nccc(OC)c1F" ?
Out: 10.9 mL/min/kg

----------
target: Voltage-gated inwardly rectifying potassium channel KCNH2 (Homo sapiens, UniProt Q12809); test: Inhibition of hERG expressed in CHO cells by whole cell patch clamp assay
Sequence (Q12809 whole entry): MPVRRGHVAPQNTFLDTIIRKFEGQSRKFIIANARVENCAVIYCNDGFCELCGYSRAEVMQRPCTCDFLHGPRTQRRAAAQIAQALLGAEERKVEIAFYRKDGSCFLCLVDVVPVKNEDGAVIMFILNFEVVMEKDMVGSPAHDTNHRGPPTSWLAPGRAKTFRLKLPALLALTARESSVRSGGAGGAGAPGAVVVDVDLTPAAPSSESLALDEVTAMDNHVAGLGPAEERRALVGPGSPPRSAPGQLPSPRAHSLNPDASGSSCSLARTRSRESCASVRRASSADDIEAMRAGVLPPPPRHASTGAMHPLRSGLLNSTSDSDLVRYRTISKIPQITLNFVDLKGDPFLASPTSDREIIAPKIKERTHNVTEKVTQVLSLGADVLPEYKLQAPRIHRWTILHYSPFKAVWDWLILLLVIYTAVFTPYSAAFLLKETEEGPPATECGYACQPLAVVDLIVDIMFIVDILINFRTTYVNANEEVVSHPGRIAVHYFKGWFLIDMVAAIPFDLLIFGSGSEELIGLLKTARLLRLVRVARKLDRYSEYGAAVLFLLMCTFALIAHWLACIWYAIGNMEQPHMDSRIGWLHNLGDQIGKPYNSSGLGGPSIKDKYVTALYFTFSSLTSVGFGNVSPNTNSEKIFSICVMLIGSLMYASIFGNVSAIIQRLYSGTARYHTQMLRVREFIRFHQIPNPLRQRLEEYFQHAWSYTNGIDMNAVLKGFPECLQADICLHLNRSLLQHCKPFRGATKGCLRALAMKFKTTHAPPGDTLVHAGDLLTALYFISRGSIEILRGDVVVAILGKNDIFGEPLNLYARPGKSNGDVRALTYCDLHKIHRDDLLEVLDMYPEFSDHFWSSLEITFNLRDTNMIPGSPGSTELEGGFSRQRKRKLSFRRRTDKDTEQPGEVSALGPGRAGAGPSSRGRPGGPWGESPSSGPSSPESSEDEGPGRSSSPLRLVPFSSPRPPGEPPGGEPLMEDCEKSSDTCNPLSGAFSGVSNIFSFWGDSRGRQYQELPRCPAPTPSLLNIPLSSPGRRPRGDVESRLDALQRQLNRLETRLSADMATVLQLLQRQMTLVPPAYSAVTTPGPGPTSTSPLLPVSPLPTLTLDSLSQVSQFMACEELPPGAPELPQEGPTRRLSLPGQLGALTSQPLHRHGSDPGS
OUTCOME_MEASURE: IC50

Example results:
In: Requested read-out: IC50. Entry: "COCc1nn(Cc2ccc(Cn3ccccc3=O)cc2)cc1C(=O)NCc1nccc(OC)c1F"
Out: > 33 µM

In: Lookup "COc1ccnc(CNC(=O)c2cn(Cc3ccc(Cn4ccccc4=O)cc3)nc2C(F)(F)F)c1F"
Out: > 33 µM

Then this compound:
In: What value of IC50 has been recorded for this entry: "COCc1nn(Cc2ccc(Cn3ccccc3=O)cc2)cc1C(=O)NCc1c(F)ccc(OC)c1F"
Out: > 33 µM

----------
biological target: Plasma kallikrein (Homo sapiens); assay: Inhibition of human plasma kallikrein using H-D-Pro-Phe-Arg-AFC as flurogenic substrate preincubated for 5 mins followed by substrate addition by fluorometer analysis; assay type: cell-free
OUTCOME_MEASURE: pIC50
Interpret pIC50 as the negative base-10 log of the concentration measured in mol/L.

Solved cases below.
In: What pIC50 value was documented for this compound, "Cc1cccc(C)c1CNC(=O)c1cnn(Cc2ccc(Cn3ccccc3=O)cc2)c1" ?
Out: 7.17

In: And the next one, "COCc1nn(Cc2ccc(Cn3ccccc3=O)cc2)cc1C(=O)NCc1ncc(Cl)cc1F" ?
Out: 6.80

Shifting focus to the compound that follows.
In: Give its pIC50 value. Item: "Cc1ccc(CNC(=O)c2cnn(Cc3ccc(Cn4ccccc4=O)cc3)c2)cc1"
Out: 7.06
